log10 of IC50 listing for selected compounds.
# TESTED SYSTEM: human TLR9 (Homo sapiens)
# Construct: host or cells: HEK-Blue cells (HEK293-derived reporter line)
# TEST DESCRIPTION: TLR9 inhibition reporter assay (HEK-Blue cells, secreted embryonic alkaline phosphatase reporter)
# Assay type: cell-based
# CONDITION SET: HEK-Blue cells overexpressing human TLR9, stimulated with ODN2006 5 nM; read-out: TLR 9 IC50
# Text: TLR7/8/9 Inhibition Reporter Assays HEK-Blue™-cells (Invivogen) overexpressing human TLR7, TLR8 or TLR9 receptors were used for screening inhibitors of these receptors using an inducible SLAP (secreted embryonic alkaline phosphatase) reporter gene under the control of the […] minimal promoter fused to five NF-κB and AP-1-binding sites. […]
REPORTED ENDPOINT: log10 of IC50 (log10 of the value in nM)

>  <COMPOUND>
Cn1c(-c2ccc(S(C)(=O)=O)cc2)nc2c(F)cc(C3CCN(C4CC5CCC(C4)N5CC4CC4)CC3)cc21 (single isomer, unassigned) [Example 283]

>  <log10 of IC50>
1.20

$$$$
>  <COMPOUND>
Cc1cc(C2CCN(C3CC4CCC(C3)N4C3CCC3)CC2)cc2[nH]c(-c3ccc(S(C)(=O)=O)cc3)nc12 (stereo not shown)

>  <log10 of IC50>
2.47

$$$$
>  <COMPOUND>
Cc1cc(-c2cc(F)c(CN3CCC(N(C)C)CC3)c(F)c2)cc2c1nc(-c1ccc(S(C)(=O)=O)cc1)n2C

>  <log10 of IC50>
2.67

$$$$
>  <COMPOUND>
COCCN1CCC(N2CCC(c3cc(F)c4c(c3)nc(-c3ccc(S(C)(=O)=O)cc3)n4C)CC2)CC1

>  <log10 of IC50>
2.97

$$$$
>  <COMPOUND>
COc1ccc(-c2nc3c(C)cc(C4CCN(C5CC6CCC(C5)N6C(C)C)CC4)cc3n2C)cc1OC (stereo not shown) [Example 144]

>  <log10 of IC50>
1.79

$$$$
>  <COMPOUND>
Cc1cc(C2CCN(C3CCCN(C4CCOCC4)CC3)CC2)cc2c1nc(-c1ccc(S(C)(=O)=O)cc1)n2C (single isomer, unassigned) [Example 307]

>  <log10 of IC50>
0.54

$$$$
>  <COMPOUND>
CC(C)CN1CCC(N2CCC(c3ccc4nc(-c5ccc(S(C)(=O)=O)cc5)n(C5CC5)c4c3F)CC2)CC1

>  <log10 of IC50>
1.81

$$$$

====

# TESTED SYSTEM: human TLR9 (Homo sapiens, UniProt Q9NR96)
# Construct: host or cells: HEK-Blue cells (HEK293-derived reporter line)
# Sequence (Q9NR96 26-1032): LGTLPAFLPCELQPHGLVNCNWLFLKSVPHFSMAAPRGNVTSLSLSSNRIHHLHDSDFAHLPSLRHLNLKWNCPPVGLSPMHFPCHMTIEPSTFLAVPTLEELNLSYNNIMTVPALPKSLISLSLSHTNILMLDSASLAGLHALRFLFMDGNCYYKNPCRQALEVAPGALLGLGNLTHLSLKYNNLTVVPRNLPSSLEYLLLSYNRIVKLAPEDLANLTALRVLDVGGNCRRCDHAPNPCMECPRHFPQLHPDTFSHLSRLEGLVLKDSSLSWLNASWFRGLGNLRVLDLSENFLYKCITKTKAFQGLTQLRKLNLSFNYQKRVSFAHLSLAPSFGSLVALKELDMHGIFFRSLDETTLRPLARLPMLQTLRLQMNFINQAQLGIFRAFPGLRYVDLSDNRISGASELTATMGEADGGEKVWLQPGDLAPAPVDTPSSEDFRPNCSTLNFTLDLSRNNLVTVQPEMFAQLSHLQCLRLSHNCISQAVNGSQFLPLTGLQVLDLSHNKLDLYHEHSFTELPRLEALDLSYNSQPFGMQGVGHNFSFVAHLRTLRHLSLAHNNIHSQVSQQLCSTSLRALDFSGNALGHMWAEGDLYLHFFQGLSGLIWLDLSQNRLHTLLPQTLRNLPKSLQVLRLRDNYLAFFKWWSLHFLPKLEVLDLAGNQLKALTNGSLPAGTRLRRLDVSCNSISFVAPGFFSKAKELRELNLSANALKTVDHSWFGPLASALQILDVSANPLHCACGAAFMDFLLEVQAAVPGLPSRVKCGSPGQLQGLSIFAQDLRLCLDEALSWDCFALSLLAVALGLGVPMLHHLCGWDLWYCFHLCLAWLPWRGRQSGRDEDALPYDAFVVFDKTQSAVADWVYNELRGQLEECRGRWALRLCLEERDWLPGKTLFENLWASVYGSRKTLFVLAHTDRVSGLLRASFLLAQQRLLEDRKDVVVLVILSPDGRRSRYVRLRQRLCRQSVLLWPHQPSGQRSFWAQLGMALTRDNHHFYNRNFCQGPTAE
# TEST DESCRIPTION: TLR9 inhibition reporter assay (HEK-Blue cells, secreted embryonic alkaline phosphatase reporter)
# Format: cell-based
IC50 listing for selected compounds.

>  <COMPOUND>
Cn1c(-c2ccc(S(C)(=O)=O)cc2)nc2cc(F)c(C3CCN(C4CC5CCC(C4)N5CC4CC4)CC3)cc21 (stereo not shown) [Example 230]

>  <TESTED SYSTEM>
human TLR9 (Homo sapiens, UniProt Q9NR96)

>  <IC50 (nM)>
36

$$$$
>  <COMPOUND>
Cn1c(-c2ccc(S(C)(=O)=O)cc2)nc2cc(C3CCN(C4CCN(C5COC5)CC4)CC3)c(F)cc21 [Example 244]

>  <TESTED SYSTEM>
human TLR9 (Homo sapiens, UniProt Q9NR96)

>  <IC50 (nM)>
3600

$$$$
>  <COMPOUND>
Cn1c(-c2ccc(S(C)(=O)=O)cc2)nc2cc(F)c(C3CCN(C4CC5CCC(C4)N5C4CCC4)CC3)cc21 (stereo not shown) [Example 233]

>  <TESTED SYSTEM>
human TLR9 (Homo sapiens, UniProt Q9NR96)

>  <IC50 (nM)>
58

$$$$
>  <COMPOUND>
Cn1c(-c2ccc(S(C)(=O)=O)cc2)nc2cc(C3CCN(C4CC5CCC(C4)N5C4COC4)CC3)c(F)cc21 (single isomer, unassigned) [Example 253]

>  <TESTED SYSTEM>
human TLR9 (Homo sapiens, UniProt Q9NR96)

>  <IC50 (nM)>
280

$$$$
>  <COMPOUND>
CC(C)CN1C2CCC1CC(N1CCC(c3ccc4c(nc(-c5ccc(S(C)(=O)=O)cc5)n4C)c3F)CC1)C2 (single isomer, unassigned) [Example 189]

>  <TESTED SYSTEM>
human TLR9 (Homo sapiens, UniProt Q9NR96)

>  <IC50 (nM)>
150

$$$$
>  <COMPOUND>
Cn1c(-c2ccc(S(C)(=O)=O)cc2)nc2cc(C3CCN(C4CCN(CC5CC5)CC4)CC3)c(F)cc21 [Example 242]

>  <TESTED SYSTEM>
human TLR9 (Homo sapiens, UniProt Q9NR96)

>  <IC50 (nM)>
160

$$$$
>  <COMPOUND>
Cc1cc(C2CCN(C3CC4CCC(C3)N4C3COC3)CC2)cc2c1nc(-c1ccc(S(C)(=O)=O)cc1)n2C (single isomer, unassigned) [Example 158]

>  <TESTED SYSTEM>
human TLR9 (Homo sapiens, UniProt Q9NR96)

>  <IC50 (nM)>
160

$$$$
>  <COMPOUND>
CS(=O)(=O)c1ccc(-c2nc3ccc(C4CCN(C5CCN(C6CCC6)CC5)CC4)c(F)c3[nH]2)cc1 [Example 180]

>  <TESTED SYSTEM>
human TLR9 (Homo sapiens, UniProt Q9NR96)

>  <IC50 (nM)>
25

$$$$
>  <COMPOUND>
Cn1c(-c2ccc(S(C)(=O)=O)cc2)nc2c(F)cc(C3CCN(C4CCN(C5CCOCC5)CC4)CC3)cc21 [Example 280]

>  <TESTED SYSTEM>
human TLR9 (Homo sapiens, UniProt Q9NR96)

>  <IC50 (nM)>
73

$$$$
>  <COMPOUND>
Cc1cc(C2CCN(C3CC4CCC(C3)N4CC3CCC3)CC2)cc2c1nc(-c1ccc(S(C)(=O)=O)cc1)n2C (single isomer, unassigned) [Example 157]

>  <TESTED SYSTEM>
human TLR9 (Homo sapiens, UniProt Q9NR96)

>  <IC50 (nM)>
340

$$$$
>  <COMPOUND>
Cn1c(-c2ccc(S(C)(=O)=O)cc2)nc2ccc(C3CCN(C4CCN(CC5CC5)CC4)CC3)c(F)c21 [Example 261]

>  <TESTED SYSTEM>
human TLR9 (Homo sapiens, UniProt Q9NR96)

>  <IC50 (nM)>
150

$$$$
>  <COMPOUND>
CC(C)CN1C2CCC1CC(N1CCC(c3cc4c(cc3F)nc(-c3ccc(S(C)(=O)=O)cc3)n4C)CC1)C2 (single isomer, unassigned) [Example 229]

>  <TESTED SYSTEM>
human TLR9 (Homo sapiens, UniProt Q9NR96)

>  <IC50 (nM)>
95

$$$$
>  <COMPOUND>
Cn1c(-c2ccc(S(C)(=O)=O)cc2)nc2cc(C3CCN(C4CCN(C5CCOCC5)CC4)CC3)c(F)cc21 [Example 245]

>  <TESTED SYSTEM>
human TLR9 (Homo sapiens, UniProt Q9NR96)

>  <IC50 (nM)>
1100

$$$$
